// Percent Control lookup, one value per entry
tested on: PAK6; conditions: Compound Concentration (nM):1000;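 further: KINOMEscan scanMAX binding as percent activity remaining versus control; lower means stronger binding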
MEASURED ENDPOINT: Percent Control (%)

* COc1cc(C)c(N(C)C(=O)CN(C)C)cc1Nc1nc(Nc2cccc(F)c2C(N)=O)c2cc[nH]c2n1 [GSK2219385] | 96
* CCS(=O)(=O)c1ccc(OC)c(Nc2ncc(-c3cccc(OC)c3)o2)c1 [GW580509X] | 96
* Nc1ncnc2occ(-c3ccc(NC(=O)Nc4cc(C(F)(F)F)ccc4F)cc3)c12 [GW770249X] | 100
* NS(=O)(=O)c1ccc(N/N=C2\C(=O)Nc3ccc(-c4cnco4)cc32)cc1 [GW276655] | 76
